// provenance: patent EP4635958A1

- assayProtocol: Pharmacokinetic determination in mice (IV and PO, plasma, LCMS/MS)
- Format: in vivo, Balb/c mice
- assaySetup: mouse, in vivo; Balb/c mice, intravenously (IV), 1 mg/kg, plasma; read-out: T1/2 (converted)
resultType: half-life (h)

inputSmiles	resultType	quantityUnit	recordedResult
C#Cc1c(F)ccc2cc(O)cc(-c3nc4c5c(nc(OCC6(CN7CCC(=C(F)F)CC7)CC6)nc5c3F)N3C[C@H]5CC[C@H](N5)[C@H]3[C@H](C)O4)c12	half-life	h	11.2
C#Cc1c(F)ccc2cc(O)cc(-c3nc4c5c(nc(OCC6(CN7CCC(=NOC)CC7)CC6)nc5c3F)N3C[C@H]5CC[C@H](N5)[C@H]3[C@H](C)O4)c12	half-life	h	3.2
[2H]C([2H])([2H])[C@@H]1Oc2nc(-c3cc(N)cc(Cl)c3C(F)(F)F)c(F)c3nc(OCC4(CN5CCC(=NOC)CC5)CC4)nc(c23)N2C[C@H]3CC[C@H](N3)[C@@H]12	half-life	h	4.8
C#Cc1c(F)ccc2cc(O)cc(-c3nc4c5c(nc(OCC6(CN7CCC(=C(F)F)CC7)CC6)nc5c3F)N3C[C@H]5CC[C@H](N5)[C@H]3[C@H](CC)O4)c12	half-life	h	11.5
C#Cc1c(F)ccc2cc(O)cc(-c3nc4c5c(nc(OCC6(CN7CCC(=C(F)F)CC7)CC6)nc5c3F)N3C[C@H]5CC[C@H](N5)[C@H]3CO4)c12	half-life	h	8.6
